system_name: human GLP-1 receptor (hGLP1R) (human, UniProt P43220 24-463)
method_notes: cell-based or functional assay
Numbered stars: 1 amine (or outer) side, 2 acyl side, 3 side chain; on linkers, the order of the positions; unused ones are H or OH. Square brackets hold non-standard residues; d marks the D form. Side chains are listed from the residue outwards. Ends that are not written are not given here. * marks the point of attachment. C20 diacid = O=C(O)CCCCCCCCCCCCCCCCCCC(=O)*; γGlu = O=C(O)[C@H](CCC(=O)[*:2])N[*:1]; AEEA = NCCOCCOCC(=O)O; Aib = CC(C)(N)C(=O)O
Listing of recorded pEC50 hGLPR1 by entry.

binder	pEC50 hGLPR1
H[Aib]EGTFTSDVSELK([AEEA-AEEA-γGlu-C20 diacid])EEAATQRFLEHLV-NH2 [SEQ ID NO: 55]	11 -log M
H[Aib]EGTFTSDVSTLK([AEEA-AEEA-γGlu-C20 diacid])E[Aib]AAQQRFLEHLV-NH2 [SEQ ID NO: 88]	11.4 -log M
H[Aib]EGTFTSDVSELK([AEEA-AEEA-γGlu-C20 diacid])ETAATQRFLEHLV-NH2 [SEQ ID NO: 54]	10.9 -log M

So for H[Aib]EGTFTSDVSYLK([AEEA-AEEA-γGlu-C20 diacid])EFAAQQRFLEHLV-NH2 [SEQ ID NO: 76] , the logged pEC50 hGLPR1 turned out to be 10.1 -log M

So for H[Aib]EGTFTSDVSYLK([AEEA-AEEA-γGlu-C20 diacid])EEA[Aib]LQRFLEHLV-NH2 (also: table footnote: C20DA or C18DA) [SEQ ID NO: 203] , the logged pEC50 hGLPR1 turned out to be 10.7 -log M
